Molecular target: A1 receptor (Rattus norvegicus)
Construct: Whole brain minus cerebellum and brainstem from male Long Evans rats
Sequence (P25099 1-326): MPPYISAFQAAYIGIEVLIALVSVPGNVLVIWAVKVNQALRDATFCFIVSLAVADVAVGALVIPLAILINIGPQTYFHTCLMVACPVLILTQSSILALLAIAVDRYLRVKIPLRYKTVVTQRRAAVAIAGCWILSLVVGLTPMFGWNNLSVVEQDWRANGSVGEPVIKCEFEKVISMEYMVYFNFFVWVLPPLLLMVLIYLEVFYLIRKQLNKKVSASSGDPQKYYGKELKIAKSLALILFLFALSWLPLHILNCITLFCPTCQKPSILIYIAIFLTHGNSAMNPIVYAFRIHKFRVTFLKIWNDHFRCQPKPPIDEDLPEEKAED
Assay: Adenosine Receptor Binding - A1 Receptor Affinity (RBA1), [3H]-CHA displacement
Conditions: 1.0 nM [3H]-CHA, rat brain membranes, pH 7.7, 25° C., 1 h; read-out: RBA-1 IC50 (adenosine A1 receptor affinity)
measuredEndpoint: IC50 (nM)

molecule	assayedTarget	measuredEndpoint	unitOfMeasurement	val
OC[C@H]1O[C@@H](n2cnc3c(NC4c5ccccc5-c5ccccc54)ncnc32)[C@H](O)[C@@H]1O	A1 receptor (Rattus norvegicus)	IC50	nM	8600
OC[C@H]1O[C@@H](n2cnc3c(NCC4c5ccccc5Oc5ccccc54)ncnc32)[C@H](O)[C@@H]1O [Example 4, N^6-[Xanthene-9-methylamino]adenosine]	A1 receptor (Rattus norvegicus)	IC50	nM	85
OC[C@H]1O[C@@H](n2cnc3c(NCCC4c5ccccc5-c5ccccc54)ncnc32)[C@H](O)[C@@H]1O	A1 receptor (Rattus norvegicus)	IC50	nM	435
